# assay.target: AgBbc1
# protocol.notes: SPOT peptide array binding signal intensity (averaged, normalized) (arbitrary units (background-subtracted, floor 0; scale differs between SH3 domains)); higher = stronger binding of the SH3 domain to the peptide
recorded.endpoint: SPOT peptide array binding signal intensity
Numbers only.

NPNRRAPRRPLSTQH ... 248
FPGKKSPRLPHRNKK ... 61.9
DAPASKPSVPPRNYF ... 239
FFRRSELYLPNSSKA ... 3.75
RPVPRRPSQPLNTLS ... 801

// field: SPOT peptide array binding signal intensity; key: VFQFQMPTTPISTKM ; value = 10
